Listed next: entries and their corresponding growth.
System: OVCAR-3 ovarian
protocol.description: NCI-60 one-dose screen, 48 h (100 = growth as untreated, 0 = no growth, -100 = all killed)
study.conditions: 10 µM unless noted
Method: Growth inhibition of the OVCAR-3 human tumor cell line is measured as a screen for anti-cancer activity. Cells are grown in 96 well plates and exposed to the test compound for 48 hours. Compounds are tested at a single concentration, which is 10^-5 M for most compounds. The reported endpoint is percent growth (GI% or GIPRCNT), where numbers from 0 - 100% represent growth inhibition, and numbers from -100% - 0 represent cell death. For example, a value of 40 represents 60% growth inhibition. […]
This is part of a sample that, as a whole, favours compounds with a hit. Of some 83,000 tested, about 20% had one in any assay.

compound: O=C(Nc1ccc(-n2ccc3c(NC(=O)c4ccccc4)ncnc32)cc1)Nc1ccc(Cl)c(C(F)(F)F)c1
measurement.target: OVCAR-3 ovarian
growth, %: -86.6
--
compound: C=C1C(=O)O[C@H]2[C@H]1CC/C(COC(=O)OC/C1=C/CC[C@@]3(C)O[C@H]3[C@H]3OC(=O)[C@@H](CN(C)C)[C@@H]3CC1)=C\CC[C@@]1(C)O[C@@H]21
measurement.target: OVCAR-3 ovarian
growth, %: -90.3
--
compound: CC(C)(C)C(=O)Nc1nc2c(s1)CCc1ccn(S(=O)(=O)c3ccccc3)c1-2
measurement.target: OVCAR-3 ovarian
growth, %: 95.3
--
compound: COc1ccc(/C=C/C(=O)c2ccc(-n3cc(CN4CCN(c5cc6c(cc5F)c(=O)c(C(=O)O)cn6C5CC5)CC4)nn3)cc2)cc1OC
measurement.target: OVCAR-3 ovarian
growth, %: -16.1
--
compound: O=c1nc(N2CCOCC2)oc2c(-c3cccc4ccccc34)cccc12
measurement.target: OVCAR-3 ovarian
growth, %: 85.8
--
compound: O=C(Nc1ccc(-n2ccc3c(NC(=O)c4ccccc4)nccc32)cc1)c1ccc(Cl)c(C(F)(F)F)c1
measurement.target: OVCAR-3 ovarian
growth, %: 22.9
--
compound: CCOc1ccc(Cc2nccc3cc(OCC)c(OCC)cc23)cc1OCC
measurement.target: OVCAR-3 ovarian
growth, %: 75
--
compound: COc1cc(NS(C)(=O)=O)ccc1Cc1c2ccccc2nc2ccccc12
measurement.target: OVCAR-3 ovarian
growth, %: -76.6
--
compound: O=S(=O)(Nc1cccc2cc(OS(=O)(=O)c3ccccc3)ccc12)c1ccccc1
measurement.target: OVCAR-3 ovarian
growth, %: 66.1
--
compound: COc1ccc(/C=C2\CS(=O)(=O)C/C(=C\c3ccc(OC)cc3)C2=O)cc1
measurement.target: OVCAR-3 ovarian
growth, %: -66.2
--
compound: CC1CCc2cc(F)cc3c(=O)c(C(=O)O)cn1c23 (centres undefined)
measurement.target: OVCAR-3 ovarian
growth, %: 114
--
compound: O=C(Nc1cccc([N+](=O)[O-])c1)c1ccc2ccccc2c1O
measurement.target: OVCAR-3 ovarian
growth, %: 36.9
--
compound: O=c1cc(Cl)[nH]c(=O)[nH]1
measurement.target: OVCAR-3 ovarian
growth, %: 109
--
compound: CC(C)NCC(O)COc1ccc(CC(N)=O)cc1 (centres undefined)
measurement.target: OVCAR-3 ovarian
growth, %: 114
--
compound: Cc1ccc(Cn2cc(COc3ccc4c5ccnc(C)c5n(CCCc5ccccc5)c4c3)nn2)cc1
measurement.target: OVCAR-3 ovarian
growth, %: 92.6
--
compound: COc1ccc(C(=O)NC(=O)Nc2ccc3c(c2)NC(=O)/C3=C\c2[nH]c(C)c(CCC(=O)O)c2C)c(F)c1
measurement.target: OVCAR-3 ovarian
growth, %: 23.4
--
compound: NC(CSC(c1ccccc1)(c1ccccc1)c1ccc(F)cc1)C(=O)O (centres undefined)
measurement.target: OVCAR-3 ovarian
growth, %: -39.5
--
compound: C=C1C(=O)O[C@H]2[C@H]1CC/C(COC(=O)c1ccc(Cl)nc1)=C\CC[C@@]1(C)O[C@@H]21
measurement.target: OVCAR-3 ovarian
growth, %: -42.1
--
compound: O=C(O)c1cccc(S(=O)(=O)c2ccccc2)c1
measurement.target: OVCAR-3 ovarian
growth, %: 107
